# Test system: Glycine max
# TEST_PROTOCOL: Post-emergence herbicidal evaluation, GLXMA
# EXPERIMENTAL_CONTEXT: 0.400 kg/ha, three weeks after treatment
MEASURED_QUANTITY: phytotoxicity rating GLXMA

Recorded phytotoxicity rating GLXMA, per entry:
CC1=CC(N(C(=O)COc2nc3ccccc3o2)C(C)C)=CC(C)(C)C1 [Example 17]	6 (6 - Herbicidal effect)
CC1=CC(N(C)C(=O)COc2nc3ccccc3o2)=CC(C)(C)C1 [Example 16]	4 (4 - Injury)
CC1=CC(N(C)C(=O)COc2nnc(C(F)(F)C(F)(F)F)s2)=CC(C)(C)C1 [Example 7]	5 (5 - Definite injury)
CCc1nnc(OCC(=O)N(CC)C2=CC(C)(C)CC(C)=C2)s1 [Example 6]	4 (4 - Injury)

Record summary for CC1=CC(N(C(=O)COc2nnc(C(F)(F)F)s2)C(C)C)=CC(C)(C)C1 [Example 4] : reported phytotoxicity rating GLXMA = 6 (6 - Herbicidal effect)

Record summary for CCN(C(=O)COc1nnc(C(F)(F)F)s1)C1=CC(C)(C)CC(C)=C1 [Example 1] : reported phytotoxicity rating GLXMA = 4 (4 - Injury)

Record summary for CC1=CC(N(C)C(=O)COc2nnc(C(F)(F)F)s2)=CC(C)(C)C1 [Example 3] : reported phytotoxicity rating GLXMA = 4 (4 - Injury)

Record summary for CCN(C(=O)COc1nnc(C(F)(F)C(F)(F)F)s1)C1=CC(C)(C)CC(C)=C1 [Example 8] : reported phytotoxicity rating GLXMA = 4 (4 - Injury)

Record summary for CCc1nnc(OCC(=O)N(C2=CC(C)(C)CC(C)=C2)C(C)C)s1 [Example 11] : reported phytotoxicity rating GLXMA = 5 (5 - Definite injury)

Record summary for CCc1nnc(OCC(=O)N(C)C2=CC(C)(C)CC(C)=C2)s1 [Example 5] : reported phytotoxicity rating GLXMA = 5 (5 - Definite injury)

Record summary for CCN(C(=O)COc1nc2ccccc2o1)C1=CC(C)(C)CC(C)=C1 [Example 2] : reported phytotoxicity rating GLXMA = 7 (7 - Good herbicidal effect)

* * *

# Test system: Apera spica venti
# TEST_PROTOCOL: Post-emergence herbicidal evaluation, APESV
# EXPERIMENTAL_CONTEXT: 0.400 kg/ha, three weeks after treatment
Recorded phytotoxicity rating APESV values for a group of compounds are listed next.

Recorded phytotoxicity rating APESV, per entry:
CC1=CC(N(C(=O)COc2nnc(C(F)(F)F)s2)C(C)C)=CC(C)(C)C1	8 (8 - Approaching complete kill)
CCc1nnc(OCC(=O)N(CC)C2=CC(C)(C)CC(C)=C2)s1	1 (1 - Trace effect)
CCN(C(=O)COc1nnc(C(F)(F)F)s1)C1=CC(C)(C)CC(C)=C1	8 (8 - Approaching complete kill)
CC1=CC(N(C)C(=O)COc2nc3ccccc3o2)=CC(C)(C)C1	4 (4 - Injury)
CCc1nnc(OCC(=O)N(C2=CC(C)(C)CC(C)=C2)C(C)C)s1	5 (5 - Definite injury)

Record summary for CC1=CC(N(C)C(=O)COc2nnc(C(F)(F)C(F)(F)F)s2)=CC(C)(C)C1 : reported phytotoxicity rating APESV = 2 (2 - Slight effect)

Record summary for CCN(C(=O)COc1nnc(C(F)(F)C(F)(F)F)s1)C1=CC(C)(C)CC(C)=C1 : reported phytotoxicity rating APESV = 6 (6 - Herbicidal effect)
